Origin of the recorded values: paper PMC5607274

Target: human recombinant Yes [a.a. 2–543 (end)] (Homo sapiens)
Construct: human recombinant Yes [a.a; 2–543 (end)]; purchased BPS Bioscience 40488
Sequence (P07947 2-543): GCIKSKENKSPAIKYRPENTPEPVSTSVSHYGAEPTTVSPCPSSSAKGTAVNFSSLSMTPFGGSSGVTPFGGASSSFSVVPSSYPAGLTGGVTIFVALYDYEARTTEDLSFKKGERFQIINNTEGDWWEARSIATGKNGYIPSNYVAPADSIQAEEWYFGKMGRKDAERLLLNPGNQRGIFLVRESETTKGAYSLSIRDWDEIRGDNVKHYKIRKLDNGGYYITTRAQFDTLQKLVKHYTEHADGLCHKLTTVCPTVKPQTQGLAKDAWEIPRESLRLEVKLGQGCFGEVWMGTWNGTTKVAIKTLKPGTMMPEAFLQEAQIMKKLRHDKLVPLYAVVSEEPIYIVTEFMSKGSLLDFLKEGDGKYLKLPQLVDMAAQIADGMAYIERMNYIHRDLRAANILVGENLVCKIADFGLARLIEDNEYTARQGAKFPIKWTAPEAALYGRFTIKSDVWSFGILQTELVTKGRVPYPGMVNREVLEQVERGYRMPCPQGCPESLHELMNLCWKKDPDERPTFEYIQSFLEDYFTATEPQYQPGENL
Assay: ADP-Glo kinase assay, inhibition rates of Yes phosphorylation activity (first and second screening)
Assay type: biochemical
Details: first screening; mean of n = 4 wells; 10 μmol L−1 compound
readout_type: First screening IR (inhibition rate) (%)
Provide only the numeric value, understood in %.

Kindly indicate its recorded First screening IR (inhibition rate). Item: CCN(C1CCS(=O)(=O)C1)S(=O)(=O)c1ccc(Cl)c(Cl)c1 (centres unmarked) [Compound Z45467101] 12

For the compound NC(=O)N1CCC(C(=O)N2CCCC2CC2CC3CCC2C3)CC1 (centres unmarked) [Compound Z1038829842] , give its reported First screening IR (inhibition rate). 2

Give First screening IR (inhibition rate) for COc1ccc(C(=O)Nc2n[nH]c(-c3ccc(F)cc3)n2)cc1 [Compound Z108548640] 6

Note First screening IR (inhibition rate) for the compound shown: COC(=O)c1cc(CSc2n[nH]c(-c3ccccc3)n2)oc1C [Compound Z25398505] 1

For the compound CC(CNC(=O)c1ncncc1Br)CN1CCN(C)CC1 (centres unmarked) [Compound Z1936607769] , report First screening IR (inhibition rate). -11

Using known records, supply First screening IR (inhibition rate) for O=C(COc1ccc(-c2cc(-c3ccccc3)c3cc(Cl)ccc3n2)cc1)NCCO [Compound Z57805545] 39

Could you please provide reported First screening IR (inhibition rate) for Cn1ncc2c(NCC3(c4ccccc4)CC3)ncnc21 [Compound Z229243940] ? Thanks! -5

Specify measured First screening IR (inhibition rate) for Cl.Clc1ccc(-c2cc(-c3ccccc3)c3ccccc3n2)cc1 [Compound Z48951047] . 8

Supply recorded First screening IR (inhibition rate) for O=C(O)c1cc(-c2ccccc2)nc2c1cnn2Cc1ccccc1Cl [Compound Z223844412] here. 7

Write down First screening IR (inhibition rate) measured for item Cl.Fc1ccccc1-c1cc(-c2ccccc2F)c2cc(Cl)ccc2n1 [Compound Z48955797] 11

Respond only with First screening IR (inhibition rate) recorded for Cc1nc(NCCn2cccn2)c2cnn(-c3ccccc3)c2n1 [Compound Z751573116] 14

Report measured First screening IR (inhibition rate); entry is COc1ccc(-c2nc(NC(=O)c3ccc(NC(=O)c4ccccc4)cc3)n[nH]2)cc1 [Compound Z332936670] 14

Tell me its First screening IR (inhibition rate) given CCN(CC)S(=O)(=O)c1ccc(Cl)c(NC(=O)COC(=O)c2cc(-c3ccc4cc(OC)ccc4c3)nc3ccccc23)c1 [Compound Z18792611] as the entry. -19

Output First screening IR (inhibition rate) of O=S(=O)(c1ccc(Cl)cc1)C1(S(=O)(=O)c2ccc(Cl)cc2)CCCC1 [Compound Z56759577] -18

Specify measured First screening IR (inhibition rate) for Brc1cccc(C2C=C(c3ccccc3)Nc3ncnn32)c1 (centres unmarked) [Compound Z56850769] . 9

Answer with the recorded First screening IR (inhibition rate) of CC1C/C(=C/c2ccccc2[N+](=O)[O-])c2nc3ccccc3c(C(=O)O)c2C1 (centres unmarked) [Compound Z46107814] only. 10

Determine its reported First screening IR (inhibition rate): O=C(Nc1cc(-c2cccc([N+](=O)[O-])c2)sc1C(=O)O)c1ccc2c(c1)CCC2 [Compound Z204342388] -1
